target: albumin (Bos taurus); construct: Serum proteins (including albumin) have a retention time of 2–4 min, with the albumin fraction eluting at 4.0 min; tissue Sigma-Aldrich; host or cells: fetal calf serum (whole serum, buffered with 150 mM phosphate pH 7.4); assay: Albumin binding in phosphate-buffered fetal calf serum, 195Pt traces by SEC-ICP-MS; assay type: in vitro ADME; conditions: 100 μM in FCS (150 mM phosphate buffer, pH 7.4), 37 °C, time point 0
Sequence (P02769 25-607): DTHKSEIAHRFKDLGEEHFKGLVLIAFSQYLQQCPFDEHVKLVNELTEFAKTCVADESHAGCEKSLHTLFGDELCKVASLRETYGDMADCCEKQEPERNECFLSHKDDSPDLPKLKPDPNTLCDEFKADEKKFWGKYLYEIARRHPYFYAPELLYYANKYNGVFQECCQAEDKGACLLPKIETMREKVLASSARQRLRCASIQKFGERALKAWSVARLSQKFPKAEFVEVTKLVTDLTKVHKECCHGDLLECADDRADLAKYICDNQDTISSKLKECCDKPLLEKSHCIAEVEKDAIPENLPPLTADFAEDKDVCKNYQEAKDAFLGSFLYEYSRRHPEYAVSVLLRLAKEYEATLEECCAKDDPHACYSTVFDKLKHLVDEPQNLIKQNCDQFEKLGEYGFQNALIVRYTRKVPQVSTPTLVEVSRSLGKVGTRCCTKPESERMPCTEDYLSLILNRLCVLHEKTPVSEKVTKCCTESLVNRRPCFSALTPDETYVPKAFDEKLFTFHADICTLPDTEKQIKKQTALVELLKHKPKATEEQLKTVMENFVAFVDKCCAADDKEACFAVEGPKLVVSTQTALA
Readout Type: bound to albumin at time point 0 (%)
Write the value in % as a bare number.

CC(=O)[O][Pt]12([O]C(=O)NCCN3CCN(CCOCCN4C(=O)C=CC4=O)CC3)([NH][C@@H]3CCCC[C@H]3[NH]1)[O]C(=O)C(=O)[O]2 [Ox-OAc-PIP-O-Mal] | 75

Kindly review the next compound as well.
# bound to albumin at time point 0 lookup, item CC(=O)[O][Pt]12([O]C(=O)NCCN3CCN(CCCCCN4C(=O)C=CC4=O)CC3)([NH][C@@H]3CCCC[C@H]3[NH]1)[O]C(=O)C(=O)[O]2 [Ox-OAc-PIP-C5-Mal]
69
